Data export: pIC50 values recorded with GDP-loaded wild-type KRAS (WT) (Homo sapiens).
Sequence (P01116 1-188 isoform P01116-2): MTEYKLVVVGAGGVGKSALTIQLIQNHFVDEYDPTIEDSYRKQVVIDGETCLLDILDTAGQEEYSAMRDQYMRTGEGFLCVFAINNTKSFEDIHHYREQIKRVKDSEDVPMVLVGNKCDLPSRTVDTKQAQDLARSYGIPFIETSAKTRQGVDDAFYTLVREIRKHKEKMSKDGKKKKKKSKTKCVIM
pIC50: −log10 of the molar value.

- molecule: "Cc1cc(N)nc(-c2c(F)cc3c(N4CC5(F)CCC(F)(C4)N5)nc(OC[C@@]45CCCN4C[C@H](F)C5)nc3c2F)c1C(F)(F)F [Example 6-1]"
  recordedValue: "< 7.00"

Tested system GDP-loaded wild-type KRAS (WT) (Homo sapiens); pIC50 recorded for Fc1ccc2nc(C(F)(F)F)c(-c3c(F)cc4c(N5CC6(F)CCC(F)(C5)N6)nc(OC[C@@]56CCCN5C[C@H](F)C6)nc4c3F)n2c1 [Example 6-3] was < 7.00

Assay GDP-loaded wild-type KRAS (WT) (Homo sapiens), sample Cc1cc(-c2ncc3c(N4CC5(F)CCC(F)(C4)N5)nc(OC[C@@]45CCCN4C[C@H](F)C5)nc3c2F)c2cccnc2c1N [Example 2-8] , pIC50 read: < 7.00

Values were extracted from patent US20250059208A1.
